test system: 5-HT (serotonin) uptake; assay type: biochemical, rat (Sprague Dawley); conditions: Table 1; form BASE; n = 5; read-out: IC50 5HT UPTAKE
For each record, check the reported IC50: if it is below 5 µM write Fulfilled, else write Not fulfilled.

Task: Hello, is IC50 of the following compound strictly smaller than 5 µM? Nc1c2c(nc3ccccc13)-c1ccccc1CCC2 [Compound 6]
Output: Fulfilled

Task: Hello, is IC50 of the following compound strictly smaller than 5 µM? Nc1c2c(nc3ccccc13)-c1ccc(Cl)cc1CC2 [Compound 5]
Output: Not fulfilled

Task: Hello, is IC50 of the following compound strictly smaller than 5 µM? Nc1c2c(nc3ccccc13)-c1ccccc1CC2 [Compound 3, 7 Amino-5,6-dihydro-benz-[c]-acridine]
Output: Fulfilled

Task: Hello, is IC50 of the following compound strictly smaller than 5 µM? Nc1c2c(nc3ccccc13)CCCc1ccccc1-2 [Compound 7]
Output: Fulfilled

Task: Hello, is IC50 of the following compound strictly smaller than 5 µM? COc1cccc2c1CCc1c-2nc2ccccc2c1N [Compound 4]
Output: Not fulfilled

Task: Hello, is IC50 of the following compound strictly smaller than 5 µM? COc1ccc2c(c1)CCCc1c-2nc2ccccc2c1N [Compound 1]
Output: Fulfilled
